biological target: T1, recombinant biotinylated CD71 extracellular domain (Sino Biologics) with an N-terminal 6His tag (human, UniProt P02786 89-760, biotinylated (site not stated)); assay: primary solution ELISA screen
T1 construct: extracellular domain; also called hCD71; huCD71 ECD
T1 sequence (P02786 other isoform, or with tags, fused parts or gaps): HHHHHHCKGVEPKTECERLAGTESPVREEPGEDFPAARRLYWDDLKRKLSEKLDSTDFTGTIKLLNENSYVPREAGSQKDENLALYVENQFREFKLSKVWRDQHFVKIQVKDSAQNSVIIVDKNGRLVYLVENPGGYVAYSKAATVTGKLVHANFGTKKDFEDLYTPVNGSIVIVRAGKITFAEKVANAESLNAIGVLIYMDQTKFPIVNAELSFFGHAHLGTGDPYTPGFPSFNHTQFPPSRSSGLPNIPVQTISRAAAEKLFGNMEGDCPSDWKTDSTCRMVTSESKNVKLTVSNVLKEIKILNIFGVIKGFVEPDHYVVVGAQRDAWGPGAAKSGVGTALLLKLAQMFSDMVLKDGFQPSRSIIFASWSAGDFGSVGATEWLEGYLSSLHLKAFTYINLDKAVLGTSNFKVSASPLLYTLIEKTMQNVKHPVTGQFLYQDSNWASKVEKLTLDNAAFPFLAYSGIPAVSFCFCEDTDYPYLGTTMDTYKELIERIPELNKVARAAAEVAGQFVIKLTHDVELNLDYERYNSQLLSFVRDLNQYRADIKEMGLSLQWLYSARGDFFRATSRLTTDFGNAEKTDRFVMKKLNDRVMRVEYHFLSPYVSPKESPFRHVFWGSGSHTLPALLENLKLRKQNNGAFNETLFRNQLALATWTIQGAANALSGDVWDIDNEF
MEASUREMENT_LABEL: RLU (RLU)
Enter your answer as a number in RLU; do not include the unit.

Query block: Which measured RLU value corresponds to SEQ ID NO 4 (designed binder, not shown: small tags and cut ends, FN3 domain, hit of the apical domain panning) MLPAPKNLVVSEVTEDSARLSWQGVARAFDSFLITYRDQIFAGEVIVLTVPGSERSYDLTGLKPGTEYPVWIQGVKGGSPSAPLSAESTT ?
Result block: 2.1e+06

Query block: Same question for SEQ ID NO 43 (designed binder, not shown: small tags and cut ends, FN3 domain, hit of the apical domain panning) MLPAPKNLVVSRVTEDSARLSWTAPDAAFDSFMIVYYEYTRFGEAIVLTVPGSERSYDLTGLKPGTEYTVPIDGVKGGGRSSPLSAIFTT please.
Result block: 772000

Query block: Same question for SEQ ID NO 96 (designed binder, not shown: small tags and cut ends, FN3 domain, hit of the apical domain panning) MSLPAPKNLVVSRVTEDSARLSWTAPDAAFDSFPIAYLEVFYEGEAIVLTVPGSERSYDLTGLKPGTEYQVPIEGVKGGAMSLPLSAIFTT please.
Result block: 726000

Query block: Same question for SEQ ID NO 1 (designed binder, not shown: small tags and cut ends, FN3 domain, hit of the apical domain panning) MLPAPKNLVVSRVTEDSARLSWTAPDAAFDSFPITYIEAVVLGEAIVLTVPGSERSYDLTGLKPGTEYPVGISGVKGGHNSMPLSAIFTT please.
Result block: 1.51e+06

Query block: Same question for SEQ ID NO 49 (designed binder, not shown: small tags and cut ends, FN3 domain, hit of the apical domain panning) MLPAPKNLVVSRVTEDSARLSWTAPDAAFDSFPIAYAEPRPDGEAIVLTVPGSERSYDLTGLKPGTEYSVLIHGVKGGDWSLPLSAIFTT please.
Result block: 969000

Query block: Same question for SEQ ID NO 7 (designed binder, not shown: small tags and cut ends, FN3 domain, hit of the apical domain panning) MLPAPKNLVVSDVTEDSARLSWQGVARAFDSFLITYREQIFAGEVIVLTVPGSERSYDLTGLKPGTEYPVWIQGVKGGSPSAPLSAEFTT please.
Result block: 761000

Query block: Same question for SEQ ID NO 67 (designed binder, not shown: small tags and cut ends, FN3 domain, hit of the apical domain panning) MLPAPKNLVVSRVTEDSARLSWTAPDAAFDSFTILYAEQAQFGEAIVLTVPGSERSYDLTGLKPGTEYPITGVKGGTRSGPLSAISTT please.
Result block: 1.85e+06

Query block: Same question for SEQ ID NO 24 (designed binder, not shown: small tags and cut ends, FN3 domain, hit of the apical domain panning) MLPAPKNLVVSRVTEDSARLSWTAPDAAFDSFMIRYQEGTRWGEAIVLTVPGSERSYDLTGLKPGTEYIVMIAGVKGGQISLPLSAIFTT please.
Result block: 2.45e+06

Query block: Same question for SEQ ID NO 16 (designed binder, not shown: small tags and cut ends, FN3 domain, hit of the apical domain panning) MLPAPKNLVVSRVTEDSARLSWTAPDAAFDSFGIAYREFRPSGEAIVLTVPGSERSYDLTVETGYRNEVVICGVKGGPWSGPLSAIFTT please.
Result block: 657000
